test: Plasma protein binding, equilibrium dialysis (RED), human; format: in vitro ADME; conditions: Human plasma, drug 5 μM; read-out: % bound (converted)
quantity: fraction unbound at 5 μM
// return just the number, without any unit appended

get_value(item= CCO[C@H]1CC[C@H](n2cc(NC(=O)c3csc(-c4cn[nH]c4)n3)c(-c3nc(F)ccc3F)n2)CC1 [Comparison-1, reference compound] , readout=fraction unbound at 5 μM) returns 0.004

get_value(item= `CCO[C@H]1CC[C@H](n2cc(NC(=O)c3csc(-c4cn[nH]c4)n3)c(-c3ncccn3)n2)CC1` , readout=fraction unbound at 5 μM) returns 0.03

----------
Parameter pEC50: see the listing below.
molecular target: IRAK1 (Homo sapiens, UniProt P51617); assay: IRAK1 ADP-Glo kinase assay; format: biochemical; conditions: read-out: IRAK1 ADP-Glo Kinase, 8 pt EC50
Sequence (P51617 whole entry): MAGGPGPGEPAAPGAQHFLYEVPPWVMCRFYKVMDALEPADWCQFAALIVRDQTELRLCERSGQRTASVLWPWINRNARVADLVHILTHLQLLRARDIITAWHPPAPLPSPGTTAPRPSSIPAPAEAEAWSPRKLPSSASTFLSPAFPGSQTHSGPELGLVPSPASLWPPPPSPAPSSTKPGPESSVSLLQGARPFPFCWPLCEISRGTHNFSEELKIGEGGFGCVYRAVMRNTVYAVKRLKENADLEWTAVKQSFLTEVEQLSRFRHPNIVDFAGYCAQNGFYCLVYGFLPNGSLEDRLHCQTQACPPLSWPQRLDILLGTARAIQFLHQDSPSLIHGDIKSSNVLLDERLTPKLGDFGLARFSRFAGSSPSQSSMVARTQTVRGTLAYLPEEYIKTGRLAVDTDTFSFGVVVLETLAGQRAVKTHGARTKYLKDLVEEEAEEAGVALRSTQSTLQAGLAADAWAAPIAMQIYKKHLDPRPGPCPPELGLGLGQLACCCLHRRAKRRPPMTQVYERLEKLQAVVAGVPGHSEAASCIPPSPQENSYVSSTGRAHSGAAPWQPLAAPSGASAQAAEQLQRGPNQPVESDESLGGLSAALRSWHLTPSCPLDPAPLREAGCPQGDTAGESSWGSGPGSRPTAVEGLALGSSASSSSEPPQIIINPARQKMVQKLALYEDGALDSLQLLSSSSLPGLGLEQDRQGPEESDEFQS
As a rule, pEC50 stands for the negative log10 of the concentration, concentration in M.

Worked examples, 3 compounds total:
CCO[C@H]1CC[C@H](n2cc(NC(=O)c3csc(-c4cn[nH]c4)n3)c(-c3ncccn3)n2)CC1 [Compound I-4] | 7.55
CCO[C@H]1CC[C@H](n2cc(NC(=O)c3csc(-c4cnn(COP(=O)(O)O)c4)n3)c(-c3ncccn3)n2)CC1 [Compound I-3] | 7.21
CCO[C@H]1CC[C@H](n2cc(NC(=O)c3csc(-c4cnn(COP(=O)(O)O)c4)n3)c(-c3ncccn3)n2)CC1 [Compound I-2] | 5.41

Turning now to a further compound:
get_value(item= CCO[C@H]1CC[C@H](n2cc(NC(=O)c3csc(-c4cn[nH]c4)n3)c(-c3ncccn3)n2)CC1 [Compound I-1] , readout=pEC50) returns 8.09
